targetUnderTest: MTH1 (Homo sapiens)
measurementType: IC50

[[record]]
substancesmiles = "CS(=O)(=O)c1cccc(NCCNc2cc(-c3cccc(Cl)c3Cl)nc(N)n2)c1"
targetundertest = "MTH1 (Homo sapiens)"
recordedmeasurement = "< 200 nM"

[[record]]
substancesmiles = "Cc1c(Cl)cccc1-c1cc(NCCc2ccc(NC(=O)OCC(C)(C)C)cc2)nc(N)n1"
targetundertest = "MTH1 (Homo sapiens)"
recordedmeasurement = "< 200 nM"

[[record]]
substancesmiles = "Cc1c(Cl)cccc1-c1cc(NCCNc2ccc(S(C)(=O)=O)nc2)nc(N)n1"
targetundertest = "MTH1 (Homo sapiens)"
recordedmeasurement = "< 200 nM"

[[record]]
substancesmiles = "Cc1c(Cl)cccc1-c1cc(NCCc2cccc(NC(=O)NC(C)(C)C)c2)nc(N)n1"
targetundertest = "MTH1 (Homo sapiens)"
recordedmeasurement = "< 200 nM"


Q) Recorded IC50 for `Cc1cccc(-c2cc(NCCNc3ccc(S(N)(=O)=O)cc3F)nc(N)n2)c1C` with MTH1 (Homo sapiens), please?
A) < 200 nM

Q) Recorded IC50 for `Cc1c(Cl)cccc1-c1cc(NCCc2ccc(C(N)=O)cc2)nc(N)n1` with MTH1 (Homo sapiens), please?
A) < 200 nM

Q) Recorded IC50 for `C#CCN(C)C(=O)c1ccc(CCNc2cc(-c3cccc(Cl)c3C)nc(N)n2)cc1` with MTH1 (Homo sapiens), please?
A) < 200 nM

Q) Recorded IC50 for `Nc1nc(NCCc2ccc(S(N)(=O)=O)cc2)cc(-c2cccc(OS(=O)(=O)C(F)(F)F)c2)n1` with MTH1 (Homo sapiens), please?
A) < 200 nM

Q) Recorded IC50 for `Cc1c(Cl)cccc1-c1cc(NCCOc2ccc(S(C)(=O)=O)cn2)nc(N)n1` with MTH1 (Homo sapiens), please?
A) < 200 nM

Q) Recorded IC50 for `Cc1c(Cl)cccc1-c1cc(NCCc2cccc(NC(=O)C(C)(C)C)c2)nc(N)n1` with MTH1 (Homo sapiens), please?
A) < 200 nM

Q) Recorded IC50 for `CCOC(=O)c1ccc(CCNc2cc(-c3cccc(Cl)c3C)nc(N)n2)cc1` with MTH1 (Homo sapiens), please?
A) < 200 nM

Q) Recorded IC50 for `Cc1cccc(-c2cc(NCCNc3nccc(C(N)=O)n3)nc(N)n2)c1C` with MTH1 (Homo sapiens), please?
A) < 200 nM
